Every entry's value here was drawn from patent US20230242662A1.

Target: T1, huCD46-His (human, UniProt P15529 35-343)
T1 construct: extracellular domain; Immobilised by amine coupling on the SPR chip; It may be the same protein as the ELISA antigen; also called Human CD46-His; human CD46; not shown: His tag
T1 sequence (looked up): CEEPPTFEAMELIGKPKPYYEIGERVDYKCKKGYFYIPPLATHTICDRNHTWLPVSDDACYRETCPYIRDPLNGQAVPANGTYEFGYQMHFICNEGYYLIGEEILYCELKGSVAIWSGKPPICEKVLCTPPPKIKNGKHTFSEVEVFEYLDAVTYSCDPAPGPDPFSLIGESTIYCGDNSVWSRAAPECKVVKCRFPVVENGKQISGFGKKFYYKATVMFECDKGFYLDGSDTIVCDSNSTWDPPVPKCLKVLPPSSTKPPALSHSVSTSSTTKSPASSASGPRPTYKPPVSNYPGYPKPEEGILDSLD
Test: SPR, huCD46-His immobilised, antibody as analyte, pH 6.0
Value type: kon (M⁻¹ s⁻¹)
Answer format: numeric, M⁻¹ s⁻¹ implied, no suffix.

{"columns": ["Binder", "kon / M⁻¹ s⁻¹"],
 "data": [
  ["BA-133-04-02 (antibody, V domains shown, also called CPE hit BA133-04-02) VH: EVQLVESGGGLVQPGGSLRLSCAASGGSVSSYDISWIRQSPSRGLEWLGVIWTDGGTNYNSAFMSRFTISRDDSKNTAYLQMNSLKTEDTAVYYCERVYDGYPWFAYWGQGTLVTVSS VL: AIQLTQSPSSLSASVGDRVTITCRASQGIANYLNWYLQKPGQSPQLLIYYTSSLHSGVPDRFSGSGSGTDFTLKISRVEAEDVGVYYCQQYIKLPWTFGQGTKVEIK", 611000],
  ["Benchmark (BM) BA-133-00-01 (antibody, V domains shown, the killing assays used the ADC form; Conjugation site and payload are not described; also called BM (bench mark)) VH: QVQLQESGPGLVKPSETLSLTCTVSGGSVSSYDISWIRQPPGKGLEWIGVIWTDGGTNYNSAFMSRVTISVDTSKNQFSLKLSSVTAADTAVYYCARVYDGYPWFAYWGQGTLVTVSS VL: DIQMTQSPSSLSASVGDRVTITCRASQGISNYLNWYQQKPGKAPKLLIYYTSSLHSGVPSRFSGSGSGTDFTLTISSLQPEDFATYYCQQYIKLPWTFGGGTKLEIKR", 682000]
]}

q: Answer with reported kon of BA-133-04-01 (antibody, V domains shown, also called CPE hit BA133-04-01) VH: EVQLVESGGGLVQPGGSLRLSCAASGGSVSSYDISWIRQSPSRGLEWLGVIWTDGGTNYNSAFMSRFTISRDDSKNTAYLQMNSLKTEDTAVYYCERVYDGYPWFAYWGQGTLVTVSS VL: AIQLTQSPSSLSASVGDRVTITCRASQWISNYLNWYLQKPGQSPQLLIYYTSSLHSGVPDRFSGSGSGTDFTLKISRVEAEDVGVYYCQQYIKLPWTFGQGTKVEIK
a: 1.14e+06
